Non-standard residues stand in square brackets, D forms with d. Residues, ends and D or L forms follow the SMILES beside them. *: point of attachment. Phe(4-CH2NH2) = NCc1ccc(C[C@H](N)C(=O)O)cc1; Phe(4-NH2) = Nc1ccc(C[C@H](N)C(=O)O)cc1; Phg = N[C@H](C(=O)O)c1ccccc1; Bz = O=C(c1ccccc1)*
Recorded below: IC50, system Genome polyprotein (West Nile virus).

compound | quantityUnit | IC50
NCCCC[C@H](NC(=O)[C@H](Cc1ccc(CN)cc1)NC(=O)c1ccccc1)C(=O)N[C@H](C(N)=O)c1ccccc1 (Bz-[Phe(4-CH2NH2)]-Lys-[Phg]-NH2) | nM | 1600
N=C(N)Nc1cccc(C[C@H](NC(=O)c2ccccc2)C(=O)N[C@@H](CCCCN)C(=O)N[C@H](C(N)=O)c2ccccc2)c1 | nM | 2480
CC(=O)Nc1ccc(C[C@H](NC(=O)c2ccccc2)C(=O)N[C@@H](CCCCN)C(=O)N[C@H](C(N)=O)c2ccccc2)cc1 (Bz-[Phe(4-NH2)](Ac)-Lys-[Phg]-NH2) | nM | 3850

====

assaySystem: Prothrombin (Homo sapiens)
experimentSummary: Inhibition of human thrombin at 25 uM preincubated with protein for 15 mins followed by boc-Val-Pro-Arg-AMC substrate addition measured after 10 mins by continuous fluorometric analysis
Non-standard residues stand in square brackets, D forms with d. Residues, ends and D or L forms follow the SMILES beside them. *: point of attachment. Phe(4-guanidino) = N=C(N)Nc1ccc(C[C@H](N)C(=O)O)cc1; Phe(4-CH2NH2) = NCc1ccc(C[C@H](N)C(=O)O)cc1; Phe(4-NH2) = Nc1ccc(C[C@H](N)C(=O)O)cc1; Hydrocinnamoyl = O=C(CCc1ccccc1)*; Phg = N[C@H](C(=O)O)c1ccccc1; Bz = O=C(c1ccccc1)*

compound | assaySystem | inhibition
CC(=O)Nc1ccc(C[C@H](NC(=O)c2ccccc2)C(=O)N[C@@H](CCCCN)C(=O)N[C@H](C(N)=O)c2ccccc2)cc1 (Bz-[Phe(4-NH2)](Ac)-Lys-[Phg]-NH2) | Prothrombin (Homo sapiens) | 7.4%
N=C(N)Nc1cccc([C@H](NC(=O)c2ccccc2)C(=O)N[C@@H](CCCCN)C(=O)N[C@H](C(N)=O)c2ccccc2)c1 | Prothrombin (Homo sapiens) | 41.7%
N=C(N)Nc1cccc(C[C@H](NC(=O)c2ccccc2)C(=O)N[C@@H](CCCCN)C(=O)N[C@H](C(N)=O)c2ccccc2)c1 | Prothrombin (Homo sapiens) | 55.7%
N=C(N)c1cccc(C[C@H](NC(=O)CCc2ccccc2)C(=O)N[C@@H](CCCCN)C(=O)N[C@H](C(N)=O)c2ccccc2)c1 | Prothrombin (Homo sapiens) | 90.2%
NCCCC[C@H](NC(=O)[C@H](Cc1ccc(N)cc1)NC(=O)c1ccccc1)C(=O)N[C@H](C(N)=O)c1ccccc1 (Bz-[Phe(4-NH2)]-Lys-[Phg]-NH2) | Prothrombin (Homo sapiens) | 2.3%
N=C(N)Nc1ccc(C[C@H](NC(=O)CCc2ccccc2)C(=O)N[C@@H](CCCCN)C(=O)N[C@H](C(N)=O)c2ccccc2)cc1 (Hydrocinnamoyl-[Phe(4-guanidino)]-Lys-[Phg]-NH2) | Prothrombin (Homo sapiens) | 6.4%
NCCCC[C@H](NC(=O)[C@H](Cc1ccc(CN)cc1)NC(=O)c1ccccc1)C(=O)N[C@H](C(N)=O)c1ccccc1 (Bz-[Phe(4-CH2NH2)]-Lys-[Phg]-NH2) | Prothrombin (Homo sapiens) | 3.2%

====

assaySystem: Prothrombin (Homo sapiens)
experimentSummary: Inhibition of human thrombin at 25 uM preincubated with protein for 15 mins followed by boc-Val-Pro-Arg-AMC substrate addition measured after 10 mins by continuous fluorometric analysis
Non-standard residues stand in square brackets, D forms with d. Residues, ends and D or L forms follow the SMILES beside them. *: point of attachment. Phe(4-guanidino) = N=C(N)Nc1ccc(C[C@H](N)C(=O)O)cc1; Phe(3-CN) = N#Cc1cccc(C[C@H](N)C(=O)O)c1; Hydrocinnamoyl = O=C(CCc1ccccc1)*; 3Pal = N[C@@H](Cc1cccnc1)C(=O)O; 4Pal = N[C@@H](Cc1ccncc1)C(=O)O; Phg = N[C@H](C(=O)O)c1ccccc1; Bz = O=C(c1ccccc1)*
property: inhibition

molecule | value
NCCCC[C@H](NC(=O)[C@H](Cc1cccnc1)NC(=O)c1ccccc1)C(=O)N[C@H](C(N)=O)c1ccccc1 (Bz-[3Pal]-Lys-[Phg]-NH2) | 1.8%
N=C(N)c1ccc(C[C@H](NC(=O)c2ccccc2)C(=O)N[C@@H](CCCCN)C(=O)N[C@H](C(N)=O)c2ccccc2)cc1 | 18%
NCCCC[C@H](NC(=O)[C@H](Cc1ccncc1)NC(=O)c1ccccc1)C(=O)N[C@H](C(N)=O)c1ccccc1 (Bz-[4Pal]-Lys-[Phg]-NH2) | 3.8%
N#Cc1cccc(C[C@H](NC(=O)c2ccccc2)C(=O)N[C@@H](CCCCN)C(=O)N[C@H](C(N)=O)c2ccccc2)c1 (Bz-[Phe(3-CN)]-Lys-[Phg]-NH2) | 4%
N=C(N)Nc1ccc(C[C@H](NC(=O)c2ccccc2)C(=O)N[C@@H](CCCCN)C(=O)N[C@H](C(N)=O)c2ccccc2)cc1 (Bz-[Phe(4-guanidino)]-Lys-[Phg]-NH2) | 7.6%
N=C(N)NCCC[C@H](NC(=O)c1ccc(C(F)(F)F)cc1)C(=O)N[C@@H](CCCCN)C(=O)N[C@H](C(N)=O)c1ccccc1 | 7.7%
N=C(N)c1ccc(C[C@H](NC(=O)CCc2ccccc2)C(=O)N[C@@H](CCCCN)C(=O)N[C@H](C(N)=O)c2ccccc2)cc1 | 24.7%
N=C(N)c1ccc([C@H](NC(=O)c2ccccc2)C(=O)N[C@@H](CCCCN)C(=O)N[C@H](C(N)=O)c2ccccc2)cc1 | 5.5%
CC(=N)Nc1ccc(C[C@H](NC(=O)c2ccccc2)C(=O)N[C@@H](CCCCN)C(=O)N[C@H](C(N)=O)c2ccccc2)cc1 | 7.7%
N=C(N)c1ccc(C[C@H](NC(=O)c2ccc(C(F)(F)F)cc2)C(=O)N[C@@H](CCCCN)C(=O)N[C@H](C(N)=O)c2ccccc2)cc1 | 50.3%
N=C(N)NCCC[C@H](NC(=O)CCc1ccccc1)C(=O)N[C@@H](CCCCN)C(=O)N[C@H](C(N)=O)c1ccccc1 (Hydrocinnamoyl-Arg-Lys-[Phg]-NH2) | 2.5%
N=C(N)c1cccc(C[C@H](NC(=O)c2ccc(C(F)(F)F)cc2)C(=O)N[C@@H](CCCCN)C(=O)N[C@H](C(N)=O)c2ccccc2)c1 | 66.6%

====

Tested on: dengue virus type 2
experimentSummary: Inhibition of Dengue virus (serotype 2) NS2B-NS3 protease at 50 uM preincubated with protein for 15 mins followed by Abz-Nle-Lys-Arg-Arg-Ser-3-(NO2)Tyr substrate addition measured by continuous fluorometric analysis
Non-standard residues stand in square brackets, D forms with d. Residues, ends and D or L forms follow the SMILES beside them. *: point of attachment. Phe(4-guanidino) = N=C(N)Nc1ccc(C[C@H](N)C(=O)O)cc1; Phe(3-CN) = N#Cc1cccc(C[C@H](N)C(=O)O)c1; Phe(4-NH2) = Nc1ccc(C[C@H](N)C(=O)O)cc1; Hydrocinnamoyl = O=C(CCc1ccccc1)*; 3Pal = N[C@@H](Cc1cccnc1)C(=O)O; Phg = N[C@H](C(=O)O)c1ccccc1; Bz = O=C(c1ccccc1)*
Recorded measurements of inhibition, one per entry

molecule | quantityUnit | inhibition
CC(=N)Nc1ccc(C[C@H](NC(=O)c2ccccc2)C(=O)N[C@@H](CCCCN)C(=O)N[C@H](C(N)=O)c2ccccc2)cc1 | % | 76.6
NCCCC[C@H](NC(=O)[C@H](Cc1cccc(N)c1)NC(=O)c1ccccc1)C(=O)N[C@H](C(N)=O)c1ccccc1 | % | 28.9
N#Cc1cccc(C[C@H](NC(=O)c2ccccc2)C(=O)N[C@@H](CCCCN)C(=O)N[C@H](C(N)=O)c2ccccc2)c1 (Bz-[Phe(3-CN)]-Lys-[Phg]-NH2) | % | 29.6
NCCCC[C@H](NC(=O)[C@H](Cc1ccc(N)cc1)NC(=O)c1ccccc1)C(=O)N[C@H](C(N)=O)c1ccccc1 (Bz-[Phe(4-NH2)]-Lys-[Phg]-NH2) | % | 21.1
NCCCC[C@H](NC(=O)[C@H](Cc1cccnc1)NC(=O)c1ccccc1)C(=O)N[C@H](C(N)=O)c1ccccc1 (Bz-[3Pal]-Lys-[Phg]-NH2) | % | 17.5
N=C(N)c1ccc(C[C@H](NC(=O)CCc2ccccc2)C(=O)N[C@@H](CCCCN)C(=O)N[C@H](C(N)=O)c2ccccc2)cc1 | % | 101
N=C(N)c1ccc([C@H](NC(=O)c2ccccc2)C(=O)N[C@@H](CCCCN)C(=O)N[C@H](C(N)=O)c2ccccc2)cc1 | % | 24.8
N=C(N)Nc1ccc(C[C@H](NC(=O)c2ccc(C(F)(F)F)cc2)C(=O)N[C@@H](CCCCN)C(=O)N[C@H](C(N)=O)c2ccccc2)cc1 | % | 100
N=C(N)NCCC[C@H](NC(=O)CCc1ccccc1)C(=O)N[C@@H](CCCCN)C(=O)N[C@H](C(N)=O)c1ccccc1 (Hydrocinnamoyl-Arg-Lys-[Phg]-NH2) | % | 95.9
N=C(N)c1ccc(C[C@H](NC(=O)c2ccc(C(F)(F)F)cc2)C(=O)N[C@@H](CCCCN)C(=O)N[C@H](C(N)=O)c2ccccc2)cc1 | % | 99.8
N=C(N)Nc1ccc(C[C@H](NC(=O)CCc2ccccc2)C(=O)N[C@@H](CCCCN)C(=O)N[C@H](C(N)=O)c2ccccc2)cc1 (Hydrocinnamoyl-[Phe(4-guanidino)]-Lys-[Phg]-NH2) | % | 101
N=C(N)Nc1cccc([C@H](NC(=O)c2ccccc2)C(=O)N[C@@H](CCCCN)C(=O)N[C@H](C(N)=O)c2ccccc2)c1 | % | 98.8
N=C(N)NCCC[C@H](NC(=O)c1ccc(C(F)(F)F)cc1)C(=O)N[C@@H](CCCCN)C(=O)N[C@H](C(N)=O)c1ccccc1 | % | 98.7

The values you see were collected from ChEMBL document CHEMBL3627637.
